- experimental-system: LTRPC7 (Mus musculus, UniProt Q923J1)
- Construct: expressed in transfected cells
- Sequence (Q923J1 2-1863 limits assumed): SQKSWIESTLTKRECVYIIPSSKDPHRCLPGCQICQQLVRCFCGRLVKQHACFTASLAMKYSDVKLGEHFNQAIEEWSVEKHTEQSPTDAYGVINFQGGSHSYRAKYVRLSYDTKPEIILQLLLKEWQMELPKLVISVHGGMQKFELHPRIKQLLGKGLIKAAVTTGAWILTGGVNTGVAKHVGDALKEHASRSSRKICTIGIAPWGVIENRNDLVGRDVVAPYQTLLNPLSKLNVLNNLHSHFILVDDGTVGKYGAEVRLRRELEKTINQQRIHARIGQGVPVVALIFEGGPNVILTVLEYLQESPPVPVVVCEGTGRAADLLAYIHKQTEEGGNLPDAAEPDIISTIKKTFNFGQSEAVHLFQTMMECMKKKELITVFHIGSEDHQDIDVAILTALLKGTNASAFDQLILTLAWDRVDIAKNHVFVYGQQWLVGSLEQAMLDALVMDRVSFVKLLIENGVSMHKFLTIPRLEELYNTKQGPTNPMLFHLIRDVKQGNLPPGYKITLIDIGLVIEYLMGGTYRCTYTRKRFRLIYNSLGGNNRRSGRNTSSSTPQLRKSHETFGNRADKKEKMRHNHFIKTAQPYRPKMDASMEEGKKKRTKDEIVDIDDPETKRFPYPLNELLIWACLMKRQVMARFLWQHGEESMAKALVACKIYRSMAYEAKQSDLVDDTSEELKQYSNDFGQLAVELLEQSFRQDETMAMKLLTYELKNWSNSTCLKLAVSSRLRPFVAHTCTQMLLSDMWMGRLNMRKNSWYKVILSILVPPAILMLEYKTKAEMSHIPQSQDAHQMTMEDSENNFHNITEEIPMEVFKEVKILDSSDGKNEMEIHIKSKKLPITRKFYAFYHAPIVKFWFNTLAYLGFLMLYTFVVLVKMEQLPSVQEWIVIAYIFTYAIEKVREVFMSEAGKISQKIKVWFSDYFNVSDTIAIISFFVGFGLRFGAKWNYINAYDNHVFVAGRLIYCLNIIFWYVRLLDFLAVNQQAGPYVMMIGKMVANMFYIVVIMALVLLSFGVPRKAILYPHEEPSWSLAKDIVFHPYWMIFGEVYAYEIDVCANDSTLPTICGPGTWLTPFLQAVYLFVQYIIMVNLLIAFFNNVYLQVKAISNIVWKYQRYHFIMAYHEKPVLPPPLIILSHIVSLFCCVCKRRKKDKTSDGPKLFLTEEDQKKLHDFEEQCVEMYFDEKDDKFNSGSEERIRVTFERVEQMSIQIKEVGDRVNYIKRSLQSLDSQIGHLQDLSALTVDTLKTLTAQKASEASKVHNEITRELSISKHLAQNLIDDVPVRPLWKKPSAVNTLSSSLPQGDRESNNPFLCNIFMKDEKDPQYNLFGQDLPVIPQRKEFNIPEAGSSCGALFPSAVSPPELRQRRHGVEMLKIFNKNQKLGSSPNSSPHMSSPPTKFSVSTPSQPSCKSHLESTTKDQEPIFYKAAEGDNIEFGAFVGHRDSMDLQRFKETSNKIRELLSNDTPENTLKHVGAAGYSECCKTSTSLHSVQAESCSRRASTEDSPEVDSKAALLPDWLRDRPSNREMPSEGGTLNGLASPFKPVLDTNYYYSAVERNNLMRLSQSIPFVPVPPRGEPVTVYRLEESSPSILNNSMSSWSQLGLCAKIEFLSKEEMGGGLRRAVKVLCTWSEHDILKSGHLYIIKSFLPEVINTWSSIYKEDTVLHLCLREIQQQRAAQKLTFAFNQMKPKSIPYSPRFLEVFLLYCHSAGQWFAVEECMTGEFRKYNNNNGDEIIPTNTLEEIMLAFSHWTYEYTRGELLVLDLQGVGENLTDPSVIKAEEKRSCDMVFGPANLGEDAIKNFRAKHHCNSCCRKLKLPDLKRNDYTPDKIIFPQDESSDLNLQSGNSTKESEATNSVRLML
- experiment-summary: Equimolar substitution of 10 mM Ca^2+ by other divalent metal ions, whole-cell patch-clamp
- Assay type: cell-based
- condition-label: 10 mM test cation replacing 10 mM Ca^2+, no Mg^2+, -80 mV, HEK-293 over-expressing LTRPC7
measured-property: increase in inward current compared to Ca^2+

Worked examples follow.
compound="[Mn+2] [Mn^2+]" data_value="less than double"
compound="[Mg+2] [Mg^2+]" data_value="less than double"
compound="[Ni+2] [Ni^2+]" data_value="greater than three-fold"
compound="[Zn+2] [Zn^2+]" data_value="greater than three-fold"

For the compound [Co+2] [Co^2+] , what increase in inward current compared to Ca^2+ is on record? less than double

Data credit: patent US8580525B2
